Target: recombinant human S1P1 receptor (Homo sapiens)
Sequence (P21453 whole entry): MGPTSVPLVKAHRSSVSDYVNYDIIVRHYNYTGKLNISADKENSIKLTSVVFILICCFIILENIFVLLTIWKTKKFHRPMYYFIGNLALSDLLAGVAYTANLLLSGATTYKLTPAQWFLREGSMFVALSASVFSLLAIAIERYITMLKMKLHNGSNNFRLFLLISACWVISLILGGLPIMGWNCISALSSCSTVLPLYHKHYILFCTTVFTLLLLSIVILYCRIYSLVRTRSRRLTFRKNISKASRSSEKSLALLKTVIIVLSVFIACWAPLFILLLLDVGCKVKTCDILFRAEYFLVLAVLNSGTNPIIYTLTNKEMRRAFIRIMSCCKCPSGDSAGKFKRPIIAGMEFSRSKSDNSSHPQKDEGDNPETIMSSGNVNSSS
Assay: GTPγS assay to determine EC50 values
Type: biochemical
Conditions: 35S-GTPγS binding, membrane preparations of CHO cells expressing recombinant human S1P1 receptor, agonistic activity
Description: GTPγS binding assays are performed in 96 well microtiter plates (Nunc, 442587) in a final volume of 200 μl, using membrane preparations of CHO cells expressing recombinant human S1P1 receptor. […] Membrane-bound ^35S-GTPγS is measured with a TopCount from Packard Biosciences. […]
Metric name: EC50 (nM)

Smiles string	Unit string	EC50
CCc1cc(-c2noc(-c3cc(C)c(CC(C)C)cn3)n2)cc(C)c1OC[C@H](O)CO	nM	7.2

(1) CCC(CC)c1cc(OC)cc(-c2nc(-c3cc(C)c(OC[C@@H](O)CO)c(Cl)c3)no2)n1
(2) CCc1cc(-c2noc(-c3cc(C)c(CC(C)C)cn3)n2)cc(C)c1OC(CO)CO
Quick check, higher EC50 between 1 and 2 ? Label of pick, please. 1

---

Biological target: recombinant human S1P1 receptor (Homo sapiens)
Assay: GTPγS assay to determine EC50 values
Assay type: biochemical
Conditions: 35S-GTPγS binding, membrane preparations of CHO cells expressing recombinant human S1P1 receptor, agonistic activity
Metric name: EC50 (nM)

Check out these entries, answers already filled in.
Smiles string	Value reported
CCC(CC)c1cc(OC)cc(-c2nc(-c3cc(C)c(OC[C@@H](O)CNC(=O)CO)c(C)c3)no2)n1	2.8
CCC(CC)c1cc(OC)cc(-c2nc(-c3cc(C)c(OC[C@@H](O)CNC(=O)CO)c(OC)c3)no2)n1	8.8
CCc1cc(-c2noc(-c3cc(OC)cc(CC(C)C)n3)n2)cc(C)c1OC[C@@H](O)CNC(=O)CO	2.3
CCc1cc(-c2noc(-c3cc(C)c(CC(C)C)cn3)n2)cc(C)c1OCCNC(=O)CO	8.8
CCc1cc(-c2noc(-c3cc(C)cc(C(CC)CC)n3)n2)cc(C)c1OC[C@@H](O)CO	2.2

(P) CCc1cc(-c2noc(-c3cc(C)c(CC(C)C)cn3)n2)cc(C)c1OC[C@@H](O)CNCCC(=O)O
(Q) CCc1cc(-c2noc(-c3cc(C)c(CC(C)C)cn3)n2)cc(C)c1OC[C@@H](O)CO
(R) CCC(CC)c1cc(OC)cc(-c2nc(-c3cc(C)c(OC[C@@H](O)CNC(=O)CO)c(Cl)c3)no2)n1
(S) CCc1cc(-c2noc(-c3cc(C)c(CC(C)C)cn3)n2)cc(C)c1CCC(=O)NCCC(=O)O
List these items ordered by EC50, big to small. Write the labels in rank order as requested. Q, S, P, R
(Q: 9.1 nM, S: 3.3 nM, P: 2.3 nM, R: 0.8 nM)

---

Molecular target: recombinant human S1P1 receptor (Homo sapiens)
Assay: GTPγS assay to determine EC50 values
Assay type: biochemical
Conditions: 35S-GTPγS binding, membrane preparations of CHO cells expressing recombinant human S1P1 receptor, agonistic activity
Metric name: EC50 (nM)

Check out these entries, answers already filled in.
Smiles string	Measurement target	Unit string	EC50
CCc1cc(-c2noc(-c3cc(C)c(CC(C)C)cn3)n2)cc(C)c1OC[C@@H](O)CNS(=O)(=O)CC	recombinant human S1P1 receptor (Homo sapiens)	nM	11.9
CCc1cc(-c2nc(-c3cc(C)c(CC(C)C)cn3)no2)cc(C)c1OC[C@@H](O)CNC(=O)CO	recombinant human S1P1 receptor (Homo sapiens)	nM	9
CCc1cc(-c2noc(-c3cc(C)c(CC(C)C)cn3)n2)cc(C)c1OCCNCCC(=O)O	recombinant human S1P1 receptor (Homo sapiens)	nM	5.1
CCc1cc(-c2noc(-c3cc(OC)cc(C(CC)CC)n3)n2)cc(C)c1OC[C@@H](O)CNC(=O)CO	recombinant human S1P1 receptor (Homo sapiens)	nM	3.1

(1) COc1cc(CC(C)C)nc(-c2nc(-c3cc(C)c(OC[C@@H](O)CNC(=O)CO)c(C)c3)no2)c1
(2) CCc1cc(-c2noc(-c3cc(C)c(CC(C)C)cn3)n2)cc(C)c1OC[C@@H](O)CNCCO
I would appreciate it if you could say which entry, 1 or 2 , has the lower EC50 value. Label of pick, please. 1

Reference source: patent US8575200B2
